Known pKd of a selection of binders
Target system: T1, BoNT/A Lc448, truncated botulinum neurotoxin serotype A light chain containing residues 1-448 (Clostridium botulinum, UniProt P0DPI0 1-448)
T1 construct: range 1-448
T1 sequence (P0DPI0 1-448 limits assumed): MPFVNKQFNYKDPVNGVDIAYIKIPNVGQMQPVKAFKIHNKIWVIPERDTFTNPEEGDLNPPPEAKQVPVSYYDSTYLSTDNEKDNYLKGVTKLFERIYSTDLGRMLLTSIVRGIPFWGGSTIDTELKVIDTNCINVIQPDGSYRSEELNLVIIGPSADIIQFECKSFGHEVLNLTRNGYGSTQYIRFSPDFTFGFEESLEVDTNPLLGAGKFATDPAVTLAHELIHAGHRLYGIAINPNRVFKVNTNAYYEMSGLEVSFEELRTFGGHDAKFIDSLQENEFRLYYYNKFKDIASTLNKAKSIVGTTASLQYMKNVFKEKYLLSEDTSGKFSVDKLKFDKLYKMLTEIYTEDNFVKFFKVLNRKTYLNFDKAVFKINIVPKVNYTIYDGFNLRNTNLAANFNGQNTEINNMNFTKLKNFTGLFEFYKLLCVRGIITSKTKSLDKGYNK
Experiment notes: flow cytometry, yeast-displayed VHH titrated with soluble BoNT/A Lc448
Worth noting: pKd values are minus log10 of concentrations stated in mol/L.

# Binder, pKd
data = [
    ("A19 VHH (VHH) VHH: EVQLVESGGGLVQPGGSLRLSCAASGFTFSGSAMSWVRQTPGKGLEWVSFISRSGSVTEYADSVKGRFTIARDNAPNTVYLQMNSLKPEDTAVYYCTADSYVDYEDDRLKWHHSWGQGTQVTVSS", 8.33),
]

Could you please provide reported pKd for Aa11 VHH (VHH) VHH: QVQLVESGGGLVQAGGSLRLSCAASGRTFSSYAMGWFRQAPGKEREFVAAISWSGGSTYYADSVKGRFTISRDDARNTVTLLMNSLKPEDTAVYFCNAWSLEEQYWGQGTQVTVSS ? Thanks!
7.12

Could you please provide reported pKd for Aa8 VHH (VHH) VHH: AVQLVESGGGLVQAGDSLRLSCTLSGGTFRHYAMSWFRQAPGKERVFVARIDYDGAMKYYADSVKGRFTISRDNAKNTMYLQMNSLKPEDTAVYYCNAHWDYGLGPEWDYWGQGTLVTVSS ? Thanks!
6.95

Could you please provide reported pKd for Aa9 VHH (VHH) VHH: QVQLVESGGGMVQPGGSLRLSCKGSGSVFMFYDMGWYRQAPGNQRELVAVMGPGGNTNYADAVKGRFTVARNIDEDTVSLLMTNLEPEDTAVYYCAADFDTPWGASGRYDYWGQGTQVTVSS ? Thanks!
8.39
